target: Orexin receptor type 2 (Homo sapiens, UniProt O43614); experiment: Antagonist activity at human OX2R expressed in CHO cells assessed as inhibition of orexin A-induced intracellular Ca2+ release by FLIPR assay
Sequence (O43614 whole entry): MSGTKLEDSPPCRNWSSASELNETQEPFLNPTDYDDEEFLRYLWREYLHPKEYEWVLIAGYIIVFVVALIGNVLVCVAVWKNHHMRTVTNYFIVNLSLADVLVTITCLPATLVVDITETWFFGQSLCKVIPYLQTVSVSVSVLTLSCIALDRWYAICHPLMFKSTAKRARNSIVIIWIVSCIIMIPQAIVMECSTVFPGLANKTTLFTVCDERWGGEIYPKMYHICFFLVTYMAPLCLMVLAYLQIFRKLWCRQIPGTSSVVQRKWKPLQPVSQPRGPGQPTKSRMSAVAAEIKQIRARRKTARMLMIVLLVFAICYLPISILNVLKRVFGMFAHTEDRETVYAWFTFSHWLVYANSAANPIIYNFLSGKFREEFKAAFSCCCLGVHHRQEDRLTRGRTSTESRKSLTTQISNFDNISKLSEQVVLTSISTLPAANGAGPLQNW
Measured IC50 of individual entries

chemical_smiles	IC50 [nM]
C[C@@H]1CC[C@@H](c2nc(CN(C)C)c(-c3ccccc3)o2)CN1C(=O)c1ccccc1-n1nccn1	983
CCOc1ccccc1C(=O)N1C[C@H](c2nc(C(C)(C)O)c(C)o2)CC[C@H]1C	12
CC[C@](C)(O)c1nc([C@@H]2CC[C@@H](C)N(C(=O)c3cscc3-n3nccn3)C2)oc1C	18

* * *

Target: Orexin/Hypocretin receptor type 1 (Homo sapiens, UniProt O43613)
Sequence (O43613 whole entry): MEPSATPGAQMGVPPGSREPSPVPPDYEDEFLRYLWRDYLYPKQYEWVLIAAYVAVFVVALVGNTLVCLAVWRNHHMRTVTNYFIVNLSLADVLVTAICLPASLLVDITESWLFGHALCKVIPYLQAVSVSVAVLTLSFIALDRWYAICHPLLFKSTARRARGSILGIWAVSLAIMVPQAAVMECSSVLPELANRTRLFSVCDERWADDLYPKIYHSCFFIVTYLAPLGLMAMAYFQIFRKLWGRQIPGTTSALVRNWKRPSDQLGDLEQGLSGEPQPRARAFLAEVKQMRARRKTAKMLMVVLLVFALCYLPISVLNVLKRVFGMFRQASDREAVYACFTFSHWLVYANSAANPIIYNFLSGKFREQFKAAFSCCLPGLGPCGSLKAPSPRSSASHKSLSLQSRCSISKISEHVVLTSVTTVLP
Experiment: Antagonist activity at human OX1R expressed in CHO cells assessed as inhibition of orexin A-induced intracellular Ca2+ release by FLIPR assay
pIC50: −log10 of the molar value.

chemical_smiles	pIC50
CC[C@](C)(O)c1nc([C@@H]2CC[C@@H](C)N(C(=O)c3cscc3-n3nccn3)C2)oc1C	5.01
